Assay: IV/PO pharmacokinetics, NHP
Assay type: in vivo
Settings: cynomolgus monkey, plasma, 1 mg/kg; NHP (cyno), dose iv/po 1/5 mg/kg; read-out: Vss
Measured Quantity: Vd (L/kg)
Quick reminder: number only, in L/kg, skip the unit.

Request: What value of measured Vd is listed for Cn1ccc(-c2ccc(Cc3cc(C(=O)NC4CCOCC4)nc4ccn(C)c34)cc2)n1 [compound 11] ?
Response: 0.39

---

Quick record: IC50, CYP2C9 (Homo sapiens, UniProt P11712).
Quick reminder: number only, in µM, skip the unit.

Request: What value of measured IC50 is listed for Cn1ccc(-c2ccc(Cc3cc(C(=O)NC4CCOCC4)nc4ccn(C)c34)cc2)n1 [compound 11] ?
Response: 28.5

Request: Now give it for Cn1ccc(-c2ccc(Cc3cc(C(=O)NC4CCOCC4)nc4ccsc34)cc2)n1 [compound 12] too.
Response: 16.6

Entry source: paper PMC11413853
